- system-tested: Bcl-2 G101V (Homo sapiens, UniProt P10415, G101V)
- experiment-summary: Bcl-2 G101V inhibition, fluorescence polarization (Flu-BIM tracer) binding assay
- condition: FP; 20 nM Bcl2, 5 nM Flu-BIM, 1 h incubation; read-out: Bcl-2 G101V (FP)
reported-endpoint: pIC50
As a rule, pIC50 stands for the negative log10 of the concentration, concentration in M.

Query: Value lookup for pIC50; key = CC1(C)CCC(CN2CCN(c3ccc(C(=O)NS(=O)(=O)c4ccc(NCC5CCOCC5)c([N+](=O)[O-])c4)c(Oc4cnc5[nH]ccc5c4)c3)CC2)=C(c2ccsc2CN2CCOCC2)C1
Reply: 7.41

Query: Value lookup for pIC50; key = Cc1sc(C2=C(CN3CCN(c4ccc(C(=O)NS(=O)(=O)c5ccc(NC[C@H]6CC[C@](C)(O)CC6)c([N+](=O)[O-])c5)c(Oc5cnc6[nH]ccc6c5)c4)CC3)CCC(C)(C)C2)cc1-c1c(F)cc(C(C)(C)O)cc1F
Reply: 6.99

Query: Value lookup for pIC50; key = CC1(C)CCC(CN2CCN(c3ccc(C(=O)NS(=O)(=O)c4ccc(NC[C@H]5COCCO5)c([N+](=O)[O-])c4)c(Oc4cnc5[nH]ccc5c4)c3)CC2)=C(c2cc(NC(=O)c3ccccc3)cs2)C1
Reply: 7.18

Query: Value lookup for pIC50; key = CC1(C)CCC(CN2CCN(c3ccc(C(=O)NS(=O)(=O)c4ccc(NC[C@H]5CC[C@](C)(O)CC5)c([N+](=O)[O-])c4)c(Oc4cnc5[nH]ccc5c4)c3)CC2)=C(c2cc(-c3ccc(C(C)(C)O)cc3)cs2)C1
Reply: 7.41

Query: Value lookup for pIC50; key = CC1(C)CCC(CN2CCN(c3ccc(C(=O)NS(=O)(=O)c4ccc(NC[C@H]5CC[C@](C)(O)CC5)c([N+](=O)[O-])c4)c(Oc4cnc5[nH]ccc5c4)c3)CC2)=C(c2cc3c(s2)CCN(c2ccc(F)cc2)C3)C1
Reply: 7.02

* * *

Listing of entries alongside the reported IC50.
- system-tested: Bcl-2 G101V (Homo sapiens, UniProt P10415, G101V)
- experiment-summary: Bcl-2 G101V inhibition, fluorescence polarization (Flu-BIM tracer) binding assay
- condition: FP; 20 nM Bcl2, 5 nM Flu-BIM, 1 h incubation; read-out: Bcl-2 G101V (FP)
Write it as a number; the unit µM goes unstated.

CC1(C)CCC(CN2CCN(c3ccc(C(=O)NS(=O)(=O)c4ccc(NC[C@H]5CC[C@](C)(O)CC5)c([N+](=O)[O-])c4)c(Oc4cnc5[nH]ccc5c4)c3)CC2)=C(c2cc(-c3ccc(C(C)(C)O)cc3F)cs2)C1 0.0237

Consider the record given below.
Query: Observed IC50 on Bcl-2 G101V (Homo sapiens, UniProt P10415, G101V) for CC1(C)CCC(CN2CCN(c3ccc(C(=O)NS(=O)(=O)c4ccc(NC[C@H]5CC[C@](C)(O)CC5)c([N+](=O)[O-])c4)c(Oc4cnc5[nH]ccc5c4)c3)CC2)=C(c2cc(CN3CCOCC3)cs2)C1 , please.
Reply: 0.0301

* * *

- system-tested: Bcl-2 G101V (Homo sapiens, UniProt P10415, G101V)
- experiment-summary: Bcl-2 G101V inhibition, fluorescence polarization (Flu-BIM tracer) binding assay
- condition: FP; 20 nM Bcl2, 5 nM Flu-BIM, 1 h incubation; read-out: Bcl-2 G101V (FP)
Listing of entries alongside the reported IC50.
Give the number first and the unit second.

// solved cases for IC50 follow
CC1(C)CCC(CN2CCN(c3ccc(C(=O)NS(=O)(=O)c4ccc(NC[C@H]5COCCO5)c([N+](=O)[O-])c4)c(Oc4cnc5[nH]ccc5c4)c3)CC2)=C(c2cc(-c3ccc(Cl)cc3F)cs2)C1 46.3 nM
[2H]C([2H])([2H])C(O)(c1cc(F)c(-c2csc(C3=C(CN4CCN(c5ccc(C(=O)NS(=O)(=O)c6ccc(NC[C@H]7CC[C@](C)(O)CC7)c([N+](=O)[O-])c6)c(Oc6cnc7[nH]ccc7c6)c5)CC4)CCC(C)(C)C3)c2)c(F)c1)C([2H])([2H])[2H] 27.8 nM
CC1(C)CCC(CN2CCN(c3ccc(C(=O)NS(=O)(=O)c4ccc(NC[C@H]5CC[C@](C)(O)CC5)c([N+](=O)[O-])c4)c(Oc4cnc5[nH]ccc5c4)c3)CC2)=C(c2cc(-c3cc(F)cc(C#N)c3)cs2)C1 47.5 nM
CC1(C)CCC(CN2CCN(c3ccc(C(=O)NS(=O)(=O)c4ccc(NC[C@H]5COCCO5)c([N+](=O)[O-])c4)c(Oc4cnc5[nH]ccc5c4)c3)CC2)=C(c2cc3c(s2)CCN(c2ccc(F)cc2)C3)C1 65.1 nM

Consider the record given below.
Query: Value lookup for IC50; key = CC(C)c1sccc1C1=C(CN2CCN(c3ccc(C(=O)NS(=O)(=O)c4ccc(NCC5CCOCC5)c([N+](=O)[O-])c4)c(Oc4cnc5[nH]ccc5c4)c3)CC2)CCC(C)(C)C1
Reply: 37.6 nM
